List of melting point values.

# example entries with known answers
Exam item: Reported melting point for N#Cc1ccc(C2C(=O)N(Cc3ccccc3)Cc3cncn32)cc1 (centres unmarked) : what is it?
Marked response: 163 to 165 °C

Exam item: Field entry: O=C1C(c2cccc(Br)c2)n2cncc2CN1Cc1ccccn1 (centres unmarked)
Marked response: 52 to 56 °C

Exam item: Cool, now Cc1cccc(CN2Cc3cncn3C(c3ccc(C#N)cc3)C2=O)c1.Cl (centres unmarked)
Marked response: 275 to 277 °C

Exam item: Repeat for the following compound: N#Cc1ccc(C2C(=O)N(Cc3ccc(Cl)c(Cl)c3)Cc3cncn32)cc1 (centres unmarked)
Marked response: 175 to 176 °C

// below: melting point requested for another compound
Exam item: Which value of melting point has been reported for Cl.O=C1C(c2ccc(Br)cc2)n2cncc2CN1CC1CC1 (centres unmarked) in the records?
Marked response: 223 to 225 °C

Just for reference, patent US7732603B2 is where these values come from.
